The reported numbers originate from patent US20200347139A1.

Biological target: T1, human CLEC12a expressed on transiently transfected HEK 293 cells (human, UniProt Q5QGZ9 1-265)
T1 construct: also called CLL-1; CLL1
T1 sequence: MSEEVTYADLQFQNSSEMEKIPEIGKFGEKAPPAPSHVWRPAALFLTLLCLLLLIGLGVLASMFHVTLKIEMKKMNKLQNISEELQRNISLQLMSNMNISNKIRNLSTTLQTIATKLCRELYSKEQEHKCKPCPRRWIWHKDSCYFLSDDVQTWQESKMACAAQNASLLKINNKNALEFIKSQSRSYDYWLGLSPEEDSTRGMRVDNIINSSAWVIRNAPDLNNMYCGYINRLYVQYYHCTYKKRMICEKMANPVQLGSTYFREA
Assay: flow cytometry on HEK 293 cells transfected with human CLEC12a; apparent Kd, one-site fit
quantity: Kd (nM)
Answer in nM, number only, no unit symbol.

INSERT INTO assay_data (binder, quantity, observed) VALUES
  ('hzME02v4 sdAb (VHH hzME02v4 fused to human IgG1 xELL Fc) (Fc fusion, Humanized version of ME02; No linker is stated; also called hzME02v4-IgG1) EVQLVESGGGEVQPGGSLRLSCAASGRTFEYDDMVWFRQAPGKEREEVAGISWSGGSIYYAESVKGRFSISRDNAKNTVYLEMNRLKPEDTAVYYCNVGSYWGQGTLVTVDKTHTCPPCPAPGGPSVFLFPPKPKDTLMISRTPEVTCVVVDVSHEDPEVKFNWYVDGVEVHNAKTKPREEQYNSTYRVVSVLTVLHQDWLNGKEYKCKVSNKALPAPIEKTISKAKGQPREPQVYTLPPSRDELTKNQVSLTCLVKGFYPSDIAVEWESNGQPENNYKTTPPVLDSDGSFFLYSKLTVDKSRWQQGNVFSCSVMHEALHNHYTQKSLSLSPGK', 'Kd', 0.87);

Now turn to the next binder.
# Kd of MC02 sdAb (VHH MC02 fused to human IgG1 xELL Fc) (Fc fusion, Camelid parental VHH; No linker is stated; also called MC02-IgG1) QVQLVQSGGGLAQPGGSLRLSCTASGFTFRINDMGWYRQAPGKECEMVAGISNNGFSTAYADSVKGRFTISRDNAKNTVSLQMDSLKSEDTAVYYCHRTDDGAAHACSRGQGTQVTVDKTHTCPPCPAPGGPSVFLFPPKPKDTLMISRTPEVTCVVVDVSHEDPEVKFNWYVDGVEVHNAKTKPREEQYNSTYRVVSVLTVLHQDWLNGKEYKCKVSNKALPAPIEKTISKAKGQPREPQVYTLPPSRDELTKNQVSLTCLVKGFYPSDIAVEWESNGQPENNYKTTPPVLDSDGSFFLYSKLTVDKSRWQQGNVFSCSVMHEALHNHYTQKSLSLSPGK = 0.37
